For each entry below, report its Human GLP-1 R activity (cAMP release), % activity with respect to control value.
- assayed.target: Human GLP-1 receptor (Homo sapiens)
- Construct: The full-length cDNA was cloned in pcDNA3.1(+); expressed in transfected cells
- Sequence (P43220 24-463): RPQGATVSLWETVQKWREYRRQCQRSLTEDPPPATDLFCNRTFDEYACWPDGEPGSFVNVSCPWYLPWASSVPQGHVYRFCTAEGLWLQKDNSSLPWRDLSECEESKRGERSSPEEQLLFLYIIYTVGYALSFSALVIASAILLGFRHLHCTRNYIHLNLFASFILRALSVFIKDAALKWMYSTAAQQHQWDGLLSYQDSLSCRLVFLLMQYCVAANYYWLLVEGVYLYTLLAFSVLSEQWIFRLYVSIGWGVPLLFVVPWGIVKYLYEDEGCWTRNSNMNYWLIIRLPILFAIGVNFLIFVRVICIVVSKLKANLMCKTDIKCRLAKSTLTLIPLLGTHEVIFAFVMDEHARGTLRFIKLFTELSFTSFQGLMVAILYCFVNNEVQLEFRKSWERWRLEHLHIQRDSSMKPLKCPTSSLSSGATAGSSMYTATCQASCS
- test.protocol: In vitro Human GLP-1 R agonist activity (cyclic AMP determination) in CHO/human GLP1R cells
- Type: cell-based
- condition.info: 10 μM test compound
// return numeric value only (unit: %, not printed)

Tested on Human GLP-1 receptor (Homo sapiens), the item CCc1cc(OC)ccc1-c1ccc(CC(NC(=O)[C@H](CC(=O)O)NC(=O)[C@H](CO)NC(=O)[C@@H](NC(=O)C(C)(Cc2ccccc2F)NC(=O)[C@@H](NC(=O)CNC(=O)C(CCC#N)NC(=O)C(C)(C)NC(=O)[C@@H](N)Cc2c[nH]cn2)[C@H](C)O)[C@H](C)O)C(=S)NC(CCCc2ccccc2F)C(N)=O)cc1 (single isomer, unassigned) showed Human GLP-1 R activity (cAMP release), % activity with respect to control equal to 99

Tested on Human GLP-1 receptor (Homo sapiens), the item CCc1cc(OC)ccc1-c1ccc(CC(CNC(CCCc2ccccc2)C(N)=O)NC(=O)[C@H](CC(=O)O)NC(=O)[C@H](CO)NC(=O)[C@@H](NC(=O)C(C)(Cc2ccccc2F)NC(=O)[C@@H](NC(=O)CNC(=O)C(CCC#N)NC(=O)C(C)(C)NC(=O)[C@@H](N)Cc2c[nH]cn2)[C@H](C)O)[C@H](C)O)cc1 (single isomer, unassigned) showed Human GLP-1 R activity (cAMP release), % activity with respect to control equal to 98

Tested on Human GLP-1 receptor (Homo sapiens), the item CCc1cc(OC)ccc1-c1ccc(CC(CNC(CCCc2ccccc2)C(N)=O)NC[C@H](CC(=O)O)NC(=O)[C@H](CO)NC(=O)[C@@H](NC(=O)C(C)(Cc2ccccc2F)NC(=O)[C@@H](NC(=O)CNC(=O)[C@H](CCC(N)=O)NC(=O)C(C)(C)NC(=O)[C@H](Cc2c[nH]cn2)NC(=O)OC)[C@H](C)O)[C@H](C)O)cc1 (single isomer, unassigned) showed Human GLP-1 R activity (cAMP release), % activity with respect to control equal to 99

These data points were gathered from patent US8883963B2.
